- test_description: Confirmatory qHTS for Identification of Small Molecule Activators of Huntingtin-Antisense Promoter Activity
- condition_description: HEK293 HTT-AS promoter firefly luciferase reporter, 24 h; series mostly up to 57.5 µM
Activity calls are given as the source filed them. Calls come from the whole dose curve; as a rule, active = well fitted activation curve with a large enough effect; inconclusive = small, poorly fitted or top-dose-only effect; inactive = no such curve, though single readings can be large or run the other way.
value_type: outcome

Cc1ccc(NC(=O)c2cc(S(=O)(=O)N3CCc4ccccc43)ccc2F)cc1Cl    inactive
Cc1c(C(=O)Nc2ccc(F)cc2)oc2ccc(S(=O)(=O)N3CCCCCC3)cc12    inactive
O=C(Nc1cccc(F)c1)c1cnc2sc(N3CCCC3)nn2c1=O    inactive
Cc1c(Cl)ccc2sc(N3CCN(C(=O)CCS(=O)(=O)c4ccc(F)cc4)CC3)nc12    inactive

Indicate the recorded outcome value for this molecule: `O=C(Nc1ccc2c(c1)CCCN2C(=O)c1cccs1)c1cccc(C(F)(F)F)c1`
inactive

The reported numbers originate from PubChem BioAssay AID1508622.
